Data origin: patent US10925971B2

target: Macaca fascicularis PRLR (mfPRLR.mmh; SEQ ID NO:403); assay: Surface plasmon resonance (Biacore T200), antibody-capture format; type: binding; details: 25° C., analyte mfPRLR.mmh
Sequence (as listed by the source): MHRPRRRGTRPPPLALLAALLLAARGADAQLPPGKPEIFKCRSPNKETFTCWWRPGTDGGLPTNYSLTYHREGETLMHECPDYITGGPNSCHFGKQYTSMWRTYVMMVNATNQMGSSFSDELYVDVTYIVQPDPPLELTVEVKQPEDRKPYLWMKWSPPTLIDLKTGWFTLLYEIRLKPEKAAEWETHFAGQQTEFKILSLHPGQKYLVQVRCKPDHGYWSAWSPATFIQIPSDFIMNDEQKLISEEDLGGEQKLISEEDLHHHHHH
measure: kd (s⁻¹)

1. H1H6953N: anti-PRLR antibody, human IgG1 Fc form of H1M6953N of Table 1; HCVR/LCVR SEQ ID NOs 274/282 (antibody, V domains shown) VH: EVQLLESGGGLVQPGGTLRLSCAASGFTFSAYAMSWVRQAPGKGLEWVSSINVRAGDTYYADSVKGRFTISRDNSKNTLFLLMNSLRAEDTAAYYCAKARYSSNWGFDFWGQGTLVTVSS VL: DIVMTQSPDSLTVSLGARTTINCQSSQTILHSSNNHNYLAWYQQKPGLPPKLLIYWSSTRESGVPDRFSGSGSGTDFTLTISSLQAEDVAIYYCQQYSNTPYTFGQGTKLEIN    0.000319
